Values were extracted from PubChem BioAssay AID1645848.

details: buffer; pH 7.4; 6.0 h; 150.0 µM
Threshold rule: solubility kinetic greater than or equal to 20 µg/mL is class 1; below that, class 0.

Here are 2 molecules together with their reported answers.
[[record]]
molecule = "CCOc1ccc(CCNC(=O)c2ccccc2)cc1OCC"
class = "class 1"

[[record]]
molecule = "C=CC(=O)Nc1cccc(Oc2nc(Nc3ccc(N4CCN(C)CC4)cc3)ncc2Cl)c1"
class = "class 0"


Query :: # bool: solubility kinetic of O=[S+]([O-])(Nc1nccs1)c1ccc(NCc2cc(Cl)cc(Br)c2O)cc1 >= 20 µg/mL
Result :: class 0

Query :: # bool: solubility kinetic of CCN1C(=O)c2ccccc2S(=O)c2ccc(C(=O)NCc3ccc(OC)cc3)cc21 (configuration not stated) >= 20 µg/mL
Result :: class 0

Query :: # bool: solubility kinetic of COC(=O)c1ccc2c(c1)nc1n2[C@@H](CNC(C)=O)COC1 >= 20 µg/mL
Result :: class 1

Query :: # bool: solubility kinetic of CCOc1ccccc1C(=O)NC1CCN(c2cc(C)cc(C)c2)C1=O (configuration not stated) >= 20 µg/mL
Result :: class 1

Query :: # bool: solubility kinetic of CC1CN(c2ccc(Nc3nc(-c4ccncc4)nc4ccccc34)cc2F)CC(C)O1 (configuration not stated) >= 20 µg/mL
Result :: class 0

Query :: # bool: solubility kinetic of Cc1ccc(S(=O)(=O)Nc2cnccc2C(=O)Nc2nc(-c3ccccc3)cs2)cc1 >= 20 µg/mL
Result :: class 0

Query :: # bool: solubility kinetic of FC(F)(F)Oc1cccc(Nc2nc(-c3ccncc3)nc3ccccc23)c1 >= 20 µg/mL
Result :: class 0

Query :: # bool: solubility kinetic of S=C(NCCCc1cnc[nH]1)NCCCN(Cc1ccc(Cl)c(Cl)c1)c1ccc(Br)cn1 >= 20 µg/mL
Result :: class 0
